System: MS2 coat protein
experiment.summary: apparent KD of MS2 coat protein; higher = weaker reporter binding
condition.details: Eterna round: R107; input ligand: arginine 13.2 mM
recorded.endpoint: apparent KD of MS2 coat protein (nM)
Response body: numeric value in nM, unit text excluded.

Look over these answered cases.
Query string: Given GCCUAGCAUCGAAGGAGCGGGCAUUACGCGCGAAAGCGCGAUGCACGAGGAUCACCCGUGUCCCAGGUAGGUCGCGAUGCUAGGC [SSAB Alternative Aptamer #4 V+V2] , state its recorded apparent KD of MS2 coat protein.
Result string: 153

Query string: Given ACAUGAAUAUCAUCUAUUUAUUGUACUGAAGGAGCGUCCAUGAGGACAGGUAGGUCGCAGUGUAAAACAUGAGGAUCACCCAUGU [Same State - Arginine A #1] , state its recorded apparent KD of MS2 coat protein.
Result string: 22.6

Query string: Given AGGCUUCGCAUAGGAAAACUAUGUGAAGCCCGAGGACCGGUACGGCCGCCACUCGUCCUCAACAUGAGGAUCACCCAUGUAAUAA [Mat - Exclusion - Trytophan A - D1] , state its recorded apparent KD of MS2 coat protein.
Result string: 24.5

Query string: Given UGACAUUGCUGCGAUACCAGACAUGAGGAUCACCCAUGUACCAAGGUAACCGAAAGGCAUGUCCCUUGGCAGCGCAGCAAUGUCU [MAT - Exclusion Theophlline B - Mod of Eli - D13] , state its recorded apparent KD of MS2 coat protein.
Result string: 12.8

Query string: Given AAUAAAUCGCCUGAUACCAGCGCUGGCGGACAUGAGGAUCACCCAUGUGUUACAGGCGGACGCCCUUGGCAGCGGAGCGGGAUCU [U-Shape] , state its recorded apparent KD of MS2 coat protein.
Result string: 16.2

Next:
Query string: Given GGUGGCGGGACUGAUACCAGCCACCACCGAUAGACCACAUGAGGAUCACCCAUGUUGGGUGGCCCUUGGCAGCAGUCUUGCGGCG [#1 Same State - Theophylline B Attempt #15 (HarryS)] , state its recorded apparent KD of MS2 coat protein.
Result string: 85.5

Query string: Given AUCUUUGAUGAUCUGGGAAAACCAGAUCGGCGAGGACCGGUACGGCCGCCACUCGUGUAUAAUAUACAUGAGGAUCACCCAUGUA [#20 Tryptophan A Same State] , state its recorded apparent KD of MS2 coat protein.
Result string: 50

Query string: Given GGCGCGAGCCAACAUGAGGAUCACCCAUGUCGAGGACCGGUACGGCCGCCACUCGAACGAGUGGCGCGCGCGCGCGCGCGCGCGC [Vaa] , state its recorded apparent KD of MS2 coat protein.
Result string: 12.2

Query string: Given AAAAGUAGGUCCAAUAAAACUACAUGUGAAGGAGCGCCCGAAAGGGCAGGUAGGUCGCACAUGAGGAUCACCCAUGUCCUACAAA [ArgEX 7 #OpenEnded] , state its recorded apparent KD of MS2 coat protein.
Result string: 50.1

Query string: Given UUAUAAGUACCGGUCCUCAGAUCCUCAUGACGAGGACCGGUACGGCCGCCACUCGAAACAUGAGGAUCACCCAUGUAAUAAUACC [Brourdmod12] , state its recorded apparent KD of MS2 coat protein.
Result string: 36.6

Query string: Given AACAUGAGGAUCACCCAUGUGUCCUCGAAACGAGGACCGGUACGGCCGCCACUCGAGCUAUGUUGACGAAAAGUCAGCAUAGCAA [Mat - Exclusion - Trytophan A - D13] , state its recorded apparent KD of MS2 coat protein.
Result string: 123

Query string: Given ACAUGAGGAUCACCCAUGUAGUGGCACGAUACCAGCUGAUCCCGUGGCCCUUGGCAGCGUCCGGUGUGGUGCGCCGGGUUGGAGC [BBBMULLIN] , state its recorded apparent KD of MS2 coat protein.
Result string: 38

Query string: Given GGAUUCGGCACGGCCGCCACUGCGGUGGUGUGACAUGAGGAUCACCCAUGUUGUCAUGCGGCCCUUAGGACCGGGUGGCGUUUCC [#1 Exclusion - Tryptophan B Attempt #21 (HarryS)] , state its recorded apparent KD of MS2 coat protein.
Result string: 47.1

Query string: Given GUAGGUCACCUCAUGAGACCUACCCUGGAAGGAGCGAGCGAAAGCUCAGGUAGGUCGCCAGAAACAUGAGGAUCACCCAUGUAAU [(A)''-(M)'-(A)'-(Arg1)-(Arg2)-(M1)-(M2)_Design3] , state its recorded apparent KD of MS2 coat protein.
Result string: 29.4

Query string: Given AUAACAUGAGGAUCACCCAUGUAAGCAGAUACCAGCUAGGAAACUAGCCCUUGGCAGCUGCAAUCAUGGGUGUUUGCAGCUGCAA [(M1)-(M2)-(T1)-(T2)-(M)'-(T)'_Design2] , state its recorded apparent KD of MS2 coat protein.
Result string: 21.2

Query string: Given AGUCUUAAUGGAAGGAGCGCAGUCAUAACAUGAGGAUCACCCAUGUCGAUGUGAGGGUCAUUGCAGGUAGGUCGCCAUACUAAGA [Same State - Arginine B (Freestyle 4)] , state its recorded apparent KD of MS2 coat protein.
Result string: 24.7

Query string: Given ACGAACGCACCUGAGGAUCACCCGGGUGAUACCAGCCUGGAAACAGGCCCUUGGCAGCACCUAAAAUAAAGGUAACGUUCGAAUA [TheoAX9 #MicroSwitchBubble #AlternativeMS2] , state its recorded apparent KD of MS2 coat protein.
Result string: 116

Reference source for all entries: the supplement of paper PMC9170038
